Below is a list of entries, each paired with its recorded IC50 value.
System: HGC27
measurement description: CellTiter-Blue cell-based survival/proliferation assay, HGC27
condition details: Homo sapiens, HGC-27; HGC27 stomach tumor cell line, 48 h

Field: example entries. Status: answers known.
| compound structure | reported |
| --- | --- |
| CCOCc1ccc(C)c(Nc2ncc(-c3ccc(-n4cccn4)nc3)o2)c1 | 100 to 500 nM |
| Cc1ccc(CO)cc1Nc1ncc(-c2ccc(-n3cccn3)cc2)o1 | > 1000 nM |
| Cc1ccc(COCCO)cc1Nc1ncc(-c2ccc(-n3cccn3)cc2)o1 | > 1000 nM |
| CCOCc1ccc(C)c(Nc2ncc(-c3ccc(N4C(=O)NC[C@H]4C)nc3)o2)c1 | > 1000 nM |
| COc1ccc(C)c(Nc2ncc(-c3ccc(-n4cccn4)cc3)o2)c1 | > 1000 nM |

Please give the measured IC50 for this compound: CCOCc1ccc(C)c(Nc2ncc(-c3ccc(N4CCNC4=O)cc3)o2)c1
> 1000 nM

Field entry: CCOCc1ccc(C)c(Nc2ncc(-c3ccc(-n4cccn4)cc3)s2)c1
> 1000 nM

Field entry: CC(=O)NCCOCc1ccc(C)c(Nc2ncc(-c3ccc(-n4cccn4)cc3)o2)c1
> 1000 nM

Field entry: CCOCc1ccc(C)c(Nc2ncc(-c3ccc(-n4nccn4)cc3)o2)c1
≤ 100 nM
